# assay protocol: yeast display, Sf9 membrane polyspecificity reagent, FACS + sequencing; frameworks hold sequencing errors
quantity: polyreactivity (PSR sort gate)

QVQLVESGGGLVQAGGSLRLSCAASGRIFGFYAMGWYRQAPGKERELVARITSGGRTTYADSVKGRFTISRDNAKNTVYLQMNSLKPEDTAVYYCAADARYHGFPKVYYYRGGYDYWGQGTQVTVSS ... high polyreactivity
QVQLVESGGGLVQAGGSLRLSCAASGSTFVGYTLGWSRQAPGNERELVASLSWDGGSTYYADSVKGRFTISRDNAKNTVYLQMNSLKPEDTAVYYCNADQGIIGAYTNSLPEYDYWGLGTQVTVSS ... low polyreactivity
QVQLQESGGGLVQAGGSLRLSCEASGSISHYIFMGWYRQAQGKEREFVAGIGYGGTTNYADSVKGRFTISRDNAKNTVYLQMNSLKPEDTAMYYCAAREATEFYLYYWGQGTQVTVSS ... low polyreactivity
QVQLVESGGGLVQAGGSLRLSCAASGRIFGYYTMGWYRQAPGKEWEVVAGISSGGSTNYADSVKGRFTISRDNAKNTVYLQMNSLKPEDTAVYDCAAAYPHFGGYRYDYWGQGTQVTVSS ... high polyreactivity
QVQLVESGGGLVQAGGSLRLSCAASGRISGRYAMGWYRQAPGKERELVAAITGRGGGTFYADSVKGRFTISRDNAKNTVYLQMNSLKPEDTAVYYCNTDYGSSYNYCGQGTQVTVSS ... high polyreactivity
QVQLVESGAGLVQAGGRLRLSCADSGYIFKSYAIGWYRQAPGKEREFVAAISWSGGSTYADSVKGRFTISRDNAKNTVYLQMNSLKPEDTAVYSCAAVDYYYYGVYSSWYEYWGQGTQVTVSS ... low polyreactivity
QVQLVESGGGLVQAGGSLRLSCAASGSILYTYAMGWYRQAPGKERELVASISSNAGSTYYADSVKGRFTISRDNAKNTVYLQMNSLKPEDTAVYYCNKVYGGGTYDYWGQGTQVTVSS ... low polyreactivity
QVQLVESGGGLVQEGGSLRLSCAASGRTFADYTMGWYRQAPGKERELVAAISFSGGSTYYEDSVKGRFTISRDNAKNTVYLQMNSLKPEDTAFYYCAAGHKRRAPRYYYWGQGTQVTVSS ... high polyreactivity

Q: I have this sequence here, `QVKLVESGGGLVQAGGSLRLSCADSGSIFQRYAMGWYSQKPGKAREFVAAISGRGGSTYYADSVKGRFTISRDNAKNTVYLQMNSLKPEDTAVYYCAADSSRFYGRPRYYYWGQGTQVTVSS` , and I need its recorded polyreactivity (PSR sort gate).
Ans: high polyreactivity

Q: Follow-up entry: `QVLLVESGGGLVQAGGSLRLSCAASGRIFDDYAMGWYRQAPGKESELVAAITSGGRTYYADSVKGRFTISRDNAKNTVYLKMHSLKPDDTAVYYCAAQYGWFYEFVYWGQGTPVTVSS`
Ans: high polyreactivity

Q: Follow-up entry: `QLQLVESGGGLVQAGGSLRLSCAASGSTFLYNAMGWYRQAPGKERELVAAITVSDGSTYYADSVKGRFTISRDNAKNTVYLKMNSLKPVDTAVYYCNADFPRKTRYEYWGQGTQVTVSS`
Ans: low polyreactivity

----------
# assay protocol: yeast display, Sf9 membrane polyspecificity reagent, FACS + sequencing; frameworks hold sequencing errors
quantity: polyreactivity (PSR sort gate)

Examples with answers:
QVQLVESGGGLVQAGGSLRLSCAASGSIFLRYAMGWYRQAPGKESELVARISWSGGSTYYADSVKGRFTISRDNAKNTVYLQMNSLKPEDTAVYYCAAGFRAYGELDYWGQGTQVTVSS ... low polyreactivity
QVQLVESGGGLVQAGGSLRLSCAASGSTFPGYAMGWYRQAPGKERELVASIYTGGSTYYADSVKGRFTISRDNAKNTVYLQMNSLKPEDTAVYYCAADSYNVSSLLYYWGQGTQVTVSS ... low polyreactivity
QVQLVESGGGLVQAGGSLRLSCAASGSIFPKYAMGWYRQAPGKERELVAAISRGGGSTYYADSVKGRFTISRDNAKNTVYLQMNSLKPEDTAVYYCAALFTPALSEYDYWGQGTQVTVSS ... high polyreactivity
QVQLVESGAGLVHAGGSLRLSCASSGRTFAKYAMGWYRQAPGKERELVAAISGRSGSTYYADSVKGRFTISRDNPKNTVYLQMNSLKPEDTAVYYCAASGGSRYDWVQGTQVTVSS ... high polyreactivity

Q: I have this sequence here, `QVQLVESGGGLVQAGGSLRLSCSASGSIFAIYTMGWYRQAPGTERELVAAISSRGDSTYYADSVKGRFTISRDNAKNTVYLQMNSLKPEDTAVYYCATRGDGVLGRRGYYWGQGTQVTVSS` , and I need its recorded polyreactivity (PSR sort gate).
Ans: high polyreactivity

Q: Follow-up entry: `QVQLVESGGGLVQAGGSLRLSCAASGRIVSGYAMVWYRQAPGKERELVAAITSGGSTNYADSVKGRFTLSRDNAKNTVYLQMNSLKPEDTAVYYCAADSREVSTTAYYYWGQGTQVTVSS`
Ans: low polyreactivity

Q: Follow-up entry: `QVQLVESGGGLVQAGGSLRLSCAASGRTFVPYAMGWYRQAPGKERELVAAINSGGSTYYADSVKGRFTISRDNAKNTVYLQMNSLKPEDTAVYYCAAEYWNSRFSYAYGYWGQGTQVTVSS`
Ans: high polyreactivity

Q: Follow-up entry: `QVQLVESGGGLVQAGGSLRLSCAASGLIFYAYAMGWYRQAPGKERELVAAISGSGGNTYYADSVKGRFTISRDNAKNTVYLQMNSLKPEDTAVYYCAADYTAAYPDSMYYWGQGTQVTVSS`
Ans: low polyreactivity

Q: Follow-up entry: `QVQLVESGGGLVQAGGSLRLSCAASGRTFGWYAMGWYRQAPGKERELVAAIRSSGGRTHYADSVKGRFTISRDNAKNTVYLQMNSLKPEDTAVYYCAARYSAAYYWGQGTQVTVSS`
Ans: high polyreactivity

Q: Follow-up entry: `QVQLGESGGGLVQAGGSLRLSCAASGRTFYWYDMGWYRQAPGKERELVAAITRSGGSTDYADSVKGRFTISRDNAKNTVYLQMNSLKPEDTAVYYCNADYEVSSQRPAFDYWGQGTQVTVSS`
Ans: low polyreactivity

Q: Follow-up entry: `QVQLVESGGGLVQAGGSLRLSCAASGSTFSYYRMGWYRQATGTERELVASIDYSGESTYYADSVKGRFTISLDNAKNTVYLQMNSLNPEDTAVYYCAADDYPWNRYEYWGQGTQVTVSS`
Ans: low polyreactivity
